system: PPCL-192 cells; experiment: Cell viability (resazurin/Alamar blue), PPCL-192; assay type: cell-based; settings: Homo sapiens; 48 h treatment
measure: IC50 (µM)
Express the result in µM but write the number alone.

Param readout = IC50; param system = PPCL-192 cells; param query = `Nc1ccn([C@@H]2O[C@H](CO)[C@@H](O)C2(F)F)c(=O)n1` ; response: value 57

====

Assay: Pharmacokinetic study in mice (i.v. bolus)
Assay type: in vivo
Details: mouse, plasma, iv, single i.v. bolus, Gem equivalent (b110 prints 20 mg/kg), read-out: t1/2 (half-life) (converted)
Description: For pharmacokinetic (PK) studies, normal healthy mice were grouped into control, GemHCl, and 4NSG-SLN. […] After the injection, aliquots of blood samples were collected at predetermined time points (5, 10, 15, 30, 60, 120, 240, 360, 720, and 1440 min). Blood samples collected were treated with 2 mL of an extraction solvent (15% of isopropyl alcohol in ethyl acetate). […]
Structures can show the parent of a compound that is named as a salt.
measure: half-life (min)
Express the result in min but write the number alone.

What measured half-life goes with Nc1ccn([C@@H]2O[C@H](CO)[C@@H](O)C2(F)F)c(=O)n1 [GemHCl, Gemcitabine hydrochloride] ? 42

====

experiment: Pharmacokinetic study in mice (i.v. bolus); format: in vivo; conditions: mouse, plasma, iv, single i.v. bolus, Gem equivalent (b110 prints 20 mg/kg), read-out: Cl (clearance) (converted)
Structures can show the parent of a compound that is named as a salt.
measure: clearance
# include the unit after the value

What measured clearance goes with Nc1ccn([C@@H]2O[C@H](CO)[C@@H](O)C2(F)F)c(=O)n1 [GemHCl, Gemcitabine hydrochloride] ? 0.355 mL/min

====

test: Pharmacokinetic study in mice (i.v. bolus); type: in vivo; conditions: mouse, plasma, iv, single i.v. bolus, Gem equivalent (b110 prints 20 mg/kg), read-out: Vd (volume of distribution)
Where a name gives a salt, the structure may show the parent alone.
measure: Vd (L)
Express the result in L but write the number alone.

What measured Vd goes with Nc1ccn([C@@H]2O[C@H](CO)[C@@H](O)C2(F)F)c(=O)n1 [GemHCl, Gemcitabine hydrochloride] ? 0.0217
